Recorded abundance fitness by entry
B1: Mineralocorticoid receptor, residues 600 to 675; numbered along this chain, P08235 (parent)
chain: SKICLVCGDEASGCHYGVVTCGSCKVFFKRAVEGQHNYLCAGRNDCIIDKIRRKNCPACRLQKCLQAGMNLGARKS

variants of: B1; assay: abundance fitness (aPCA) (normalised: wild type 0, dead -1); higher = more abundant; growth selection in yeast, the domain comes from the species named; details: Homo sapiens

{"Variant spec": "Q35T", "Observed value": -0.077}

Please fill in: abundance fitness reported for L65M = -0.052

Sure, the documented abundance fitness for R74F is -0.088

According to the records, this variant A67D displays abundance fitness of -0.653

Value of measured abundance fitness for the entry L39C : 0.027
